molecular target: PSG G335A (PSD-95); assay: fluorescence polarisation; displacement of 5 nM FITC-15 AA CRIPT from PDZ3 or a PSG variant by unlabelled acetylated peptide (2-fold series), room temperature, technical triplicates; Ki calculated from IC50 (Nikolovska-Coleska); buffer: methods 50 mM sodium phosphate pH 7.45, 21 mM KCl, 0.1% Tween 20, 1 mM TCEP; legend of Figure 2: 50 mM Tris, 100 mM NaCl, 1 mM TCEP, 0.1% Tween 20
pKi: −log10 of the molar value. Ends that are not written are not given here.
Observable: pKi

Some solved cases for reference:
> print(dat)
               binder  observable  reported
1  Ac-YDVVAVYPNAKVELV         pKi      3.27
2  Ac-YQSGPFIWIPSKEKL         pKi      3.12
3  Ac-YQEQNKVLWIPASPL         pKi      3.44
4  Ac-YPPSSPTLSVSSTSL         pKi      3.29

(A) Ac-YLTGAPLATSDETSI
(B) Ac-YDKPLSKKHAHSVNF
### Prompt Consider A and B . Which of these has its pKi at a higher number? Return value: the label identifying the chosen record.
### Response A
